Target: T1, MDMX (In-house, 40 kD), O15151
T1 chain: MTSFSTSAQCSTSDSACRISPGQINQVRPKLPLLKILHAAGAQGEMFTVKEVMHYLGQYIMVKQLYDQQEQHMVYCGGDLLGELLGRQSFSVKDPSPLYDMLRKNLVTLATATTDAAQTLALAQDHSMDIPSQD
Experiment: competitive FP vs FAM-labelled linear peptide; grade + = greater than 1000 nM
Conditions: remark: other sources report otherwise
Bridges are numbered along the chain shown (N, C = ends). [ ]: non-standard residue; d: D form. R8 = C=CCCCCCC[C@@](C)(N)C(=O)O; hLeu = CC(C)CC[C@H](N)C(=O)O; S5 = C=CCCC[C@](C)(N)C(=O)O; Cou6 = not defined here; Cou8 = not defined here; βAla = NCCC(=O)O
The following binders are listed with their measured IC50 values.

Cou6-[βAla]LTF[R8]EYWAQ[hLeu][S5]SAA-NH2 (staple 5-12; reading uncertain) [SP446] = > 1 µM

Requested read-out: IC50. Entry: Cou8-[βAla]LTF[R8]EYWAQ[hLeu][S5]SAA-NH2 (staple 5-12; reading uncertain) [SP447] > 1 µM
